Exercise: for every item that follows, state its recorded melting point.

Check out these entries, answers already filled in.
molecule: CON=C(C)CCc1nc2c(N)nc3ccccc3c2n1CC(C)(C)O
recorded value: 182 to 184 °C

molecule: CCOC(=O)c1cn(CC)c2nc(OC)c([N+](=O)[O-])cc2c1=O
recorded value: 224 to 227 °C

molecule: COC(=O)C(CCl)NC(=O)c1c(F)cccc1F (stereo not given)
recorded value: 93.5 °C

For each of the items listed, what is its melting point?
1. OC1(c2cccc(Cl)c2)CCN(CCCc2nnc3n2CCCCC3)CC1
2. CCOC(=O)c1cccc(-c2ccc(F)c3cc(CO)sc23)c1
3. CN(C)C1(c2ccc(F)cc2)CCC(=CC(=O)N2CCC(c3c[nH]c4ccccc34)C2)CC1 (stereo not given)

output:
["146 to 148 °C", "89 to 90 °C", "109 to 112 °C"]
